Origin of values: PubChem BioAssay

Target: Follistatin (Homo sapiens) (UniProt P19883)
Sequence (P19883 whole entry, looked up): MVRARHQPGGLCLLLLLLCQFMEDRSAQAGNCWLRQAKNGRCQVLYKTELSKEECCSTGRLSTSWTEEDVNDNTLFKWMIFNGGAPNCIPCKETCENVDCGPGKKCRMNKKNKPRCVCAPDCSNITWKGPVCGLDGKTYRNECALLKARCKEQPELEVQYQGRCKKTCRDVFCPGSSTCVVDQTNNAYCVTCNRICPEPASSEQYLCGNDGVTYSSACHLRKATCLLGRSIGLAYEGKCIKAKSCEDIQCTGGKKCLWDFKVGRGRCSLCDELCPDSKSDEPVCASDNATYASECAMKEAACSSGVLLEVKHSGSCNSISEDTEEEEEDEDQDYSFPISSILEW
Assay: FST protein binding to printed compounds – biochemical, small-molecule microarray, 635/667 nm fluorescence, primary screen (AID 1132)
Details: 635 nm fluorescence, higher = more signal
VALUE_KIND: composite z-score

{"COMPOUND": "COCC(=C=CC[C@H](O)c1ccc(CO)o1)CCO", "composite z-score": 1.3}

Ask | Consider the compound CC1=C2[C@@H](CCc3ccccc3)OB(O)C[C@@H]2[C@@H]2C(=O)N(C)C(=O)[C@@H]2C1 and give its measured composite z-score.
Reply | 0.587

Ask | Repeat with COc1cc(NN2C(C(O)c3cc(OC)c(OC)c(OC)c3)C=CC3C(=O)N(C)C(=O)C32)cc(OC)c1OC (stereo not drawn)
Reply | 0.67

Ask | Repeat with Cn1cccc1C(O)C1C=CC2C(=O)N(c3ccccc3)C(=O)C2N1Nc1ccccc1 (stereo not drawn)
Reply | 1.29

Ask | Repeat with COc1ccc([Si](C)(C)[C@H]2[C@H](CC(=O)N3Cc4ccccc4C[C@H]3CO)O[C@@]3(C(=O)N(Cc4ccc(N5CCOC5=O)cc4)c4ccccc43)[C@@H]2C)cc1
Reply | 1.32
